Where these numbers come from: patent US20060292158A1

assayOverview: Maximum tolerated dose (neither lethality nor more than 20% body weight loss) in mice
conditionsUsed: BALB/c nu/nu (athymic nude), mouse, in vivo, oral, dose with neither lethality nor more than 20% body weight loss
observable: MTD at 14 days

Task: For the compound shown here, CCCCCOC(=O)Nc1nc(=O)n([C@@H]2O[C@H](C)[C@@H](O)[C@H]2O)cc1F [capecitabine, reference compound] , give the reported MTD at 14 days.
Output: 539 mg/kg

* * *

assayOverview: Maximum tolerated dose (neither lethality nor more than 20% body weight loss) in mice
conditionsUsed: BALB/c nu/nu (athymic nude), mouse, in vivo, oral, 359 mg/kg, dose with neither lethality nor more than 20% body weight loss
observable: MTD at 14 days (mg/kg)
Answers are plain numbers, in mg/kg.

Task: # query: MTD at 14 days of entry CCCCCOC(=O)Nc1nc(=O)n([C@@H]2O[C@H](C)[C@@H](O)[C@H]2O)cc1F [capecitabine, reference compound]
Output: 359
